meta.source: paper PMC10108392

Target: CB1R (Rattus norvegicus, UniProt P20272)
Construct: Crude membrane fractions were prepared from the brain
Sequence (P20272 whole entry): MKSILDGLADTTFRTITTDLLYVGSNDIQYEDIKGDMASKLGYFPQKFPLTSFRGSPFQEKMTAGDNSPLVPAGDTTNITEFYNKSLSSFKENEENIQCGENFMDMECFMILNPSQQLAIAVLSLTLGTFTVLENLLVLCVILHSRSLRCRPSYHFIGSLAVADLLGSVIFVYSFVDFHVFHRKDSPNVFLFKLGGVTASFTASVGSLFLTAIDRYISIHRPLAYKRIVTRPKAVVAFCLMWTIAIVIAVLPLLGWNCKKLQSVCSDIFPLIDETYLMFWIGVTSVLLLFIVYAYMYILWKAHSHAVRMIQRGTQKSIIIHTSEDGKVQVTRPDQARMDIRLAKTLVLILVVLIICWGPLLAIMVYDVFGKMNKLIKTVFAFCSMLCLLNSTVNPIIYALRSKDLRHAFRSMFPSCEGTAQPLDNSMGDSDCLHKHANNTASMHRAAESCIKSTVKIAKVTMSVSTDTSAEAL
Experiment: Ligand stimulated [35S]GTPγS binding assay in rat brain membranes
Settings: rat brain membranes; ± SEM; read-out: [35S]GTPγS stimulation EC50
Experimental: Our novel chemical compounds were tested in vitro for their binding ability, efficacy, and potency on CB1R in rat brain membrane homogenate (Table 2 and SI, Figure S1). […] mM of NaCl, 3 mM of MgCl2 and 1 mM of EGTA in a 50 mM Tris-HCl buffer (pH 7.4) for 60 min at 30 °C. Basal [35S]GTPγS binding was measured in the absence of ligands and set as 100%. […] binding was determined by the addition of 10 µM unlabelled GTPγS and subtracted from total binding. […]
Exercise: state measured EC50 for each of the compounds provided.
Give the number; µM is assumed, so skip it.

Query :: Sample Cc1c(C(=O)N[C@H](C(=O)O)C(C)(C)C)nn(-c2ccc(Cl)cc2)c1-n1cccc1 [Compound 4, RS2691-tLeu-OH] — what was its EC50?
Result :: 4.61

Query :: Sample CNC(=O)[C@@H](NC(=O)c1nn(-c2ccc(Cl)cc2Cl)c(-n2cccc2Cl)c1C)C(C)(C)C [Compound 40, RS3516-tLeu-NHCH3] — what was its EC50?
Result :: 0.237

Query :: Sample COC(=O)[C@@H](NC(=O)c1cc(-n2cccc2)n(-c2ccccc2)n1)C(C)(C)C [Compound 26, RS2708-tLeu-OCH3] — what was its EC50?
Result :: 1.29
